# target-or-system: hMC4-R (Homo sapiens (Human), UniProt P32245)
# Sequence (P32245 whole entry): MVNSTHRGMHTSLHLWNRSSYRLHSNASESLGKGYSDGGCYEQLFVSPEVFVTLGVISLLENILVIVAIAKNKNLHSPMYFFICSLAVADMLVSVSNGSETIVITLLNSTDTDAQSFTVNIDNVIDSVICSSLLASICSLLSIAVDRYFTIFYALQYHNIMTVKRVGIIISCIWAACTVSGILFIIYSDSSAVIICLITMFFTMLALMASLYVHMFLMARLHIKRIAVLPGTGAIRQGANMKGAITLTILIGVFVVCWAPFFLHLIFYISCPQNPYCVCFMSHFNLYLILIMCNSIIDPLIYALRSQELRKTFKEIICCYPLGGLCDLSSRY
# procedure-details: Competitive inhibition binding assay using [I125]-NDP-α-MSH, hMC4-R
# run-conditions: membranes of HEK-293 cells expressing recombinant hMC4-R, read-out: MC4-R Ki
Positions of bridges follow the written chain, without caps; N, C: chain ends. Non-standard residues stand in square brackets, D forms with d. Residues, ends and D or L forms follow the SMILES beside them. dPhe(4-CN) = N#Cc1ccc(C[C@@H](N)C(=O)O)cc1
recorded-endpoint: pKi
Answers are plain numbers, as −log10 of the molar value.

Report pKi for every entry below.
1. CC(=O)N[C@@H](CCCNC(=N)N)C(=O)N[C@H]1CCC(=O)NCCC[C@@H](C(N)=O)NC(=O)[C@H](Cc2c[nH]c3ccccc23)NC(=O)[C@H](CCCNC(=N)N)NC(=O)[C@@H](Cc2ccc(C#N)cc2)NC(=O)[C@H](CCC(N)=O)NC1=O [Example 46]
2. CC(=O)N[C@H](CCCNC(=N)N)C(=O)N[C@H]1CCCNC(=O)CC[C@@H](C(N)=O)NC(=O)[C@H](Cc2c[nH]c3ccccc23)NC(=O)[C@H](CCCNC(=N)N)NC(=O)[C@@H](Cc2ccccc2Cl)NC(=O)[C@H](Cc2c[nH]cn2)NC1=O [Example 50]
3. CC(=O)N[C@@H](CCCNC(=N)N)C(=O)N[C@H]1CCC(=O)NCCC[C@@H](C(N)=O)NC(=O)[C@H](Cc2c[nH]c3ccccc23)NC(=O)[C@H](CCCNC(=N)N)NC(=O)[C@@H](Cc2ccc(-c3ccccc3)cc2)NC(=O)[C@H](CCN)NC1=O [Example 29]
4. CC(=O)N[C@@H](CCCNC(=N)N)C(=O)N[C@H]1CCC(=O)NCCC[C@@H](C(N)=O)NC(=O)[C@H](Cc2c[nH]c3ccccc23)NC(=O)[C@H](CCCNC(=N)N)NC(=O)[C@@H](Cc2ccc(Cl)c(Cl)c2)NC(=O)[C@H](CCN)NC1=O [Example 5]
5. CC(=O)N[C@@H](CCCNC(=N)N)C(=O)N[C@H]1CCCNC(=O)CC[C@@H](C(N)=O)NC(=O)[C@H](Cc2c[nH]c3ccccc23)NC(=O)[C@H](CCCNC(=N)N)NC(=O)[C@@H](Cc2ccc(F)cc2)NC(=O)[C@H](CC(N)=O)NC1=O [Example 70]
6. CC(=O)N[C@@H](CCCNC(=N)N)C(=O)N[C@H]1CCC(=O)NCCC[C@@H](C(N)=O)NC(=O)[C@H](Cc2c[nH]c3ccccc23)NC(=O)[C@H](CCCNC(=N)N)NC(=O)[C@@H](Cc2ccc([N+](=O)[O-])cc2)NC(=O)[C@H](CCN)NC1=O [Example 24]

Result block:
8.40
9.00
9.30
10.26
8.52
9.35

Fill in pKi for each of the 2 molecules listed.
1. CC(=O)N[C@@H](CCCNC(=N)N)C(=O)N[C@H]1CCC(=O)NCCC[C@@H](C(N)=O)NC(=O)[C@H](Cc2c[nH]c3ccccc23)NC(=O)[C@H](CCCNC(=N)N)NC(=O)[C@@H](Cc2cccc([N+](=O)[O-])c2)NC(=O)[C@H](CCN)NC1=O [Example 23]
2. CC(=O)N[C@@H](CCCNC(=N)N)C(=O)N[C@H]1CC(=O)NCCCC[C@@H](C(N)=O)NC(=O)[C@H](Cc2c[nH]c3ccccc23)NC(=O)[C@H](CCCNC(=N)N)NC(=O)[C@@H](Cc2ccc(C#N)cc2)NC(=O)[C@H](CC(N)=O)NC1=O [Example 89] (Ac-RDN[dPhe(4-CN)]RWK-NH2; lactam 2-7)

Result block:
1: 9.15; 2: 7.32

All figures here come from patent US9040663B2.
